Source listed as the supplement of paper PMC12636033.

# Test system: WT Max(13-93) synthetic (M65Nle)
# assayOverview: PBM 8-mer E-score (E-score (rank enrichment, -0.5 to 0.5)); higher = stronger preferential binding
In all, about 33,000 sequences were measured (“E-score (rank enrichment, -0.5 to 0.5)”: median about -0.0075, highest 2% from about 0.23 on). The entries come from a sample that favours the highest values as a whole.
measurementLabel: PBM 8-mer E-score
Form: value (number only, do not type unit).

AAGTACAC
0.235
ACGTTATC
0.133
CATGCATG
0.261
CGTTTTGA
-0.0368
CTTCACCC
0.151

Exam item: Provide PBM 8-mer E-score value for the following sequence: CAGTACAC
Marked response: 0.0197

Exam item: // fetch PBM 8-mer E-score given entry CTGTAAAA
Marked response: 0.0812

Exam item: Answer with the recorded PBM 8-mer E-score for the sequence listed here: ATAACTAC
Marked response: 0.239

Exam item: Please list PBM 8-mer E-score recorded for the sequence CTAACTAC
Marked response: -0.0993
